These data points were gathered from paper PMC5540273.

Test system: EIF2AK1;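 note: KINOMEscan kinase panel screen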
Conditions: concentration: 1 μM, replicates: in singlicate; n = 1
Simple rule here: %Inh less than 3% is true (1), otherwise false (0).

Hello, I'm reviewing records and need to know if %Inh of COc1ccc(C2=C(Nc3cccc(C(=O)O)c3)C(=O)NC2=O)cc1 is below 3%. Could you check? false (0)

Try this molecule next: Cn1ccc2ncnc(Oc3cccc(C(=O)Nc4ccccc4)c3)c21 false (0)

Try this molecule next: Cl.NC(=O)c1cccc(Nc2nccc(Nc3ccc(Oc4cccc(Cl)c4)c(Cl)c3)n2)c1 true (1)

***
Hello, I'm reviewing records and need to know if %Inh of COc1ccc(Nc2nccc(NCCNC(=O)Nc3ccccc3F)n2)cc1 is below 3%. Could you check? false (0)

Try this molecule next: CS(=O)(=O)c1ccc(-c2nc3n(c2-c2ccncc2)CCC3)cc1 false (0)

Try this molecule next: Cl.c1ccc(-c2n[nH]cc2-c2ccnc(-c3ccc(CN4CCOCC4)cc3)c2)nc1 true (1)
